experimental.details: MAGI-CCR5 and HeLa-R5-16 cytotoxicity, dose response, cytotoxicity control for HIV-1 fusion inhibitor project, cell-based, MAGI and MAGI-HeLa co-culture (AID 2286);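 also: cells exposed to compound for at least 64 h before ATP readout; 100% = median of DMSO vehicle wells with no ATP signal meaning 0%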
study.conditions: MAGI-CCR5 cells viability, CellTiter-Glo ATP luminescence; at 50 µM (top of the series)
Listing of recorded viability by entry.
Express your answer in %, writing the number without its unit.

Reference set, count: 5
# input Can you look up the measured viability of CCc1nnc(NS(=O)(=O)c2ccc(NC(=S)NC(=O)/C=C/c3ccc(F)cc3)cc2)s1 for me?
# output 89.6

# input One more compound: COc1ccc2c(c1)cc(C(=O)N/N=C/c1c(O)c(C(=O)O)cc3ccccc13)n2C
# output 95.6

# input One more compound: O=C(COc1ccc2ccccc2c1)Nc1cccc(C(=O)Nc2ccccc2C(=O)O)c1
# output 83.3

# input One more compound: COc1cccc(OCCOc2ccc(/C=C3\C(=N)N4N=C(S(C)(=O)=O)SC4=NC3=O)cc2OC)c1
# output 97.2

# input One more compound: CCS(=O)(=O)C1=NN2C(=N)/C(=C\c3ccc(OS(=O)(=O)c4ccccc4)c(OC)c3)C(=O)N=C2S1
# output 85.5

---
# input Can you look up the measured viability of COc1ccc(O)c(C(=O)c2cc(SCC(=O)O)c3nc4sc5c(c4c(=O)n3c2)CCCC5)c1 for me?
# output 96.7

# input One more compound: O=C(O)c1ccc(Cl)c(S(=O)(=O)Nc2ccccc2C(=O)Nc2ccc(Cl)cc2)c1
# output 82.6

# input One more compound: NC(=O)Cn1cc(C=C2C(=O)NC(=O)NC2=O)c2ccccc21
# output 91.7

Where do the numbers come from? From PubChem BioAssay AID2286.
